- assay.explanation: PET hydrolysis, aromatic products released after 48 h (umol product/mg enzyme); higher = more PET depolymerization activity
- condition.summary: substrate: cryPow; 60 °C; pH 7.5
PET hydrolysis reference

AANPYERGPAPTDAVLEASRGPFATTSYSVSGLSVTGFGGGVVYYPTSTSEGTFGAIAISPGYTATWSSLSWLGPRIASHGFVVIGIETNTLLDQPDSRGRQLLAALDYLVQRSSVRGRIDAGRLAVAGHSMGGGGTLEAAAARPSLQAAVPLAPWNLDKTWSGVTVPTLIVGGESDSVAPVASHSVPFYNSIPASSEKAYLELNGASHFFPQSVNTPTAKQMVAWLKRFVDNDTRYEQFLCPGPSGLAIEEYRNTCPSS [TEP018] ... < 3
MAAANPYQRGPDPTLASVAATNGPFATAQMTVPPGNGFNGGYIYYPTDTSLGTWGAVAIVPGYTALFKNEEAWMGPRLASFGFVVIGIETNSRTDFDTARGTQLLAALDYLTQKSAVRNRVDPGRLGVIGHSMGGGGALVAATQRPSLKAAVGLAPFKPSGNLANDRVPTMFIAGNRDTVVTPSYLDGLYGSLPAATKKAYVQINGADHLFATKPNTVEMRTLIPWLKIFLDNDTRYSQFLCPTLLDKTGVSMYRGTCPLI [TEP109] ... 5.5

Entry ADNPYQRGPDPTPASIAADHGPFATAQTTIPKGNGLGGGIVYYPTDTSQGTFGAIAIAPGYGTEWRWYGWLGPRLASFGFVVVGIETNSLSDYADARADQLLAALDWLVTSSPVRDRVDRTRLAVGGHSMGGGGALVAATRRPSLRSAVGMAPYVPDGILRGTSVPTILFGGQADTTVTPAYLASAYATIPATVPRAYPEIAGEGHGFAAGGGGGNSGAFARVMMVWLKVFVDADTRYPPFLCPTLSNTSGISKYQASCPLGPGGTIPPPDTSRLANANAGRCLDASGAGTANGTKVILWTCNHGANQQWNRT [ESM139] needs its PET hydrolysis filled in; supply it. < 3

---

- assay.explanation: PET hydrolysis, aromatic products released after 48 h (umol product/mg enzyme); higher = more PET depolymerization activity
- condition.summary: substrate: cryPow; 40 °C; pH 5.5
quantity.measured: PET hydrolysis
Please reply with the value in numeric form only.

State its PET hydrolysis for this sequence: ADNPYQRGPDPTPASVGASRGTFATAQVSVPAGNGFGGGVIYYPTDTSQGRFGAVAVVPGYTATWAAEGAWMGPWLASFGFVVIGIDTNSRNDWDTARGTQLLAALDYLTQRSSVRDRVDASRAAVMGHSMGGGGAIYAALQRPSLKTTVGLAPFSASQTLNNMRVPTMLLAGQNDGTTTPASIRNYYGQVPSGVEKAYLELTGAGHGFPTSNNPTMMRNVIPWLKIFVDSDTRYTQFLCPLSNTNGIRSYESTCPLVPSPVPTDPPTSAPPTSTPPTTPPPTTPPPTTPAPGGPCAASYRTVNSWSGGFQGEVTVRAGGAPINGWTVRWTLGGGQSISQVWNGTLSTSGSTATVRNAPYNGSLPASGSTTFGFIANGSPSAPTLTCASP [TEP013] 5.5

---

// PET hydrolysis lookup, one value per entry
- assay.explanation: PET hydrolysis, aromatic products released after 48 h (umol product/mg enzyme); higher = more PET depolymerization activity
- condition.summary: substrate: cryPow; 60 °C; pH 4.5

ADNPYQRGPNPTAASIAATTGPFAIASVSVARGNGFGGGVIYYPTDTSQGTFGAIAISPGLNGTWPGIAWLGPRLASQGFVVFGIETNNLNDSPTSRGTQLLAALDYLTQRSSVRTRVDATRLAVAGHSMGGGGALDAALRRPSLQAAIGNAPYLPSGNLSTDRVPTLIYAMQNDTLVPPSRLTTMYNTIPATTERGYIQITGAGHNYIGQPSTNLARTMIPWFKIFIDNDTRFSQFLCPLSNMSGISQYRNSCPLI [ESM159] ... < 3

Supply measured PET hydrolysis of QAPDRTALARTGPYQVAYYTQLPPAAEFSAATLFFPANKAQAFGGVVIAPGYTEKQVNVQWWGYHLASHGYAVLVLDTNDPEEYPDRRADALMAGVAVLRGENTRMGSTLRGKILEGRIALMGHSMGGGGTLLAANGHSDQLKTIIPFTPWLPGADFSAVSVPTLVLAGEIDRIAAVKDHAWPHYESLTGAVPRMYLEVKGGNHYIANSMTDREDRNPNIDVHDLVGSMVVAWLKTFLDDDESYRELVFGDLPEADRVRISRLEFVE [TEP006] in your reply. < 3

---

- assay.explanation: PET hydrolysis, aromatic products released after 48 h (umol product/mg enzyme); higher = more PET depolymerization activity
- condition.summary: substrate: aFilm; 60 °C; pH 6.5
Recorded PET hydrolysis by entry

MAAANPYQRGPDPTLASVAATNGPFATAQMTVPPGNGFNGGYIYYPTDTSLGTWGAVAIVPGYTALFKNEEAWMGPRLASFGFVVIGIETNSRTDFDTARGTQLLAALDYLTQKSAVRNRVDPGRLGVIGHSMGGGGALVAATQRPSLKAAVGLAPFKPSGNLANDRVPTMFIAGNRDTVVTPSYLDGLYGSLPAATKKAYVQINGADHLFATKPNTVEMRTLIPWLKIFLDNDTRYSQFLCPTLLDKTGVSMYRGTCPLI [TEP109] ... < 3

Continue with the sequence presented below.
Complete the entry with PET hydrolysis for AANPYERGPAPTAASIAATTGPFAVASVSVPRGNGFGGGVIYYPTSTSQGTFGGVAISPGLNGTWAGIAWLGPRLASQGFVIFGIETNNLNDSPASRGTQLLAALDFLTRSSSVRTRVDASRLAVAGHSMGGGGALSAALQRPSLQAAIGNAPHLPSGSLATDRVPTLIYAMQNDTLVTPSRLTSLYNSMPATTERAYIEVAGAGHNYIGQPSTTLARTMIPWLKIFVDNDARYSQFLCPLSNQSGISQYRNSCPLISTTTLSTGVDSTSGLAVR [ESM157] < 3

---

purified protein yield per well reference
- assay.explanation: purified protein yield per well (BCA); higher = higher soluble expression
Number only, in µg; omit the unit.

Solved entries:
DTGSHERGPDPTEQALEARSGPFDTDDERVSSLGASGFGGGTIYYPEDTSEGDFGAVALAPGYTASSTSYSSLAERIASHGFVVLAFDTNTRYDQPNSRGRQMESALEYLTEDSDVTDRIDTDRQAVSGHSMGGGGTLAAADDNPDLQAAVPLTPWHTQKSWSGMQVPTMIIGAENDSIASVRSHSIRFYESLPGSLEKGYAEVDGASHFAPNSNDDTVAKYTITWLKRFVDNDTRYEQFLCPPPDSGGWGDDLSDYRDSCPTG [DP052] ... 36
ADNPYERGPAPTTSSIEASRGPFATASTTVSSLVSGFGGGTIYYPTSTAEGTFGAVAISPGYTGTQSSIAWLGPRIASQGFVVITIDTNTIYDQPDSRASQLLAALDYLTQSSSVRTRIDATRLGVMGHSMGGGGTLRAAESRPALQAAIPLTAWHTDKTWGNVRVPTLVIGAENDSIAPVATHSEPFYTSLPSTLDKAYLELNAADHFAPNSSNTTIAKYSISWLKRFIDNDTRYEQFLCPPPSRSLLIEEYRDTCPHS [TEP108] ... 53.3
QTNPFQRGPAPTEATLEATRGPMATSQFTVSRPSGYRAGTVYYPTNAGGTVGGIVVVPGYTAYQSDINWWGPRLASWGFIVMTIDTNSTLDQPASRSRQQLAALDQLATLSRTSSSPIYNKLDTNRMGVMGWSMGGGGSLISTENRPSLKASIPFAPWNSTENFSSVTVPTLIIACQDDSIAPVYSHASPFYNSMTRNPKQFLEVRGEGHYCANSSNSDKDFLGKKGVAWMKRFMDNDTRFTTFACTNQESSLDVSDFRTARCS [DP032] ... 38
CSEEPHKAGGPWAGPYEVVTQQVSADDADGGFGDGTVRYPDDGSRDYGVIAASPGLGADESTVAPYGELLASHGFVVITIDTKTPEDSPAQRGRQLLRALDYATERSDAADRADPRRLGVLGHSMGGGGALYAAARNPHIRAAVPLTPYATRRDWHRVEAPTLVVGGSDDEVAPVSEYADAFYEGLSGAREKAYLELKGDHFVATPPDGLVSRQVVAWFGHFLAGAPGSPCPLPSGDGVTESRDTCPFGTRGR [TEP179] ... 25.7

// next item, purified protein yield per well requested
Report measured purified protein yield per well; entry is QDNSQGRYRPEGRQIGVAAGREFGERIYEVRTYETNPGIAEFADVMVFYPLTLSFDRPNGAIAFSPGFRAAADNYEWWGPALASLGYNVFILNTNEPTDDLDARADALAALVDFIKAENANPDSPVANKIDEEKIALMGHSMGGGAALAAADRLGDAVGAVIPLALYCCNPGGSFEGDYGSLSAAALVIASAEDTVAPPEAHARLLYDSLGSENKIYMEFAAGDHMFPANGGPELATMGRFTLAFLKAYLDGVAGLEQHVTSPSDEYAERFSTYLAP [TEP035] 51.6
